Tested on: pigweed
test.protocol: Test B pre/postemergence pigweed
Assay type: in vivo, Amaranthus retroflexus
condition.label: Preemergence, Rate 500 g/ha; scale of 0 to 10 where 0 is no effect and 10 is complete control
Outcome label depends on Redroot pigweed plant response rating relative to 8: at/above gives criterion met, below gives criterion not met.

> print(dat)
                                   molecule  assigned.category
1  CCOCn1c(=O)on(C(=O)N(c2ccc(F)cc2F)C(C)C)c1=O      criterion met
2  CC(=O)OCCCCn1c(=O)on(C(=O)N(c2ccccc2)C(C)C)c1=O      criterion met
3  CC(C)N(C(=O)n1oc(=O)n(CCCC(F)(F)F)c1=O)c1ccc(Cl)cc1  criterion not met
4  CC(C)N(C(=O)n1oc(=O)n(C(C)C(=O)c2ccccc2)c1=O)c1ccc(Cl)cc1 (stereo not drawn)  criterion not met
5  CC(C)Cn1c(=O)on(C(=O)N(c2ccc(F)cc2F)C(C)C)c1=O      criterion met
6  Cc1ccccc1-n1c(=O)on(C(=O)N(c2ccncc2)C(C)C)c1=O  criterion not met
7  CC(C)N(C(=O)n1oc(=O)n(C2CCC2)c1=O)c1ccc(F)cc1      criterion met

====

Here the recorded Crabgrass plant response rating is given for each entry.
System: crabgrass
test.protocol: Test B pre/postemergence crabgrass
Format: in vivo, Digitaria sanguinalis
condition.label: Postemergence, Rate 125 g/ha; scale of 0 to 10 where 0 is no effect and 10 is complete control
observed.property: Crabgrass plant response rating

> print(dat)
                                   molecule  value.reported
1  CCn1c(=O)on(C(=O)N(c2ccc(F)cc2)C(C)C)c1=O [Compound 107]               8
2  C=C(Cn1c(=O)on(C(=O)N(c2ccccc2)C(C)C)c1=O)C(C)(C)C [Compound 648]               0
3  CC[C@@H](C)n1c(=O)on(C(=O)N(c2ccc(F)cc2F)C(C)C)c1=O [Compound 667]               8

====

Here the recorded Blackgrass plant response rating is given for each entry.
Test system: blackgrass
test.protocol: Test B pre/postemergence blackgrass
Format: in vivo, Alopecurus myosuroides
condition.label: Rate 125 g/ha; Preemergence; scale of 0 to 10 where 0 is no effect and 10 is complete control
observed.property: Blackgrass plant response rating

> print(dat)
                                   compound  value.reported
1  COCCOCn1c(=O)on(C(=O)N(c2ccc(F)cc2)C(C)C)c1=O               8
2  CC(C)N(C(=O)n1oc(=O)n(C2CC2)c1=O)c1ccccc1              10
3  CCC(C)N(C(=O)n1oc(=O)n(-c2ccccc2C)c1=O)c1ccc(F)cc1 (centres unmarked)               3
4  CC(C)N(C(=O)n1oc(=O)n(C2CCCC2)c1=O)c1ccc(Cl)cc1               1
5  CCC(=O)Cn1c(=O)on(C(=O)N(c2ccc(F)cc2)C(C)C)c1=O               2

====

Tested on: cocklebur
test.protocol: Test B pre/postemergence cocklebur
Format: in vivo, Xanthium strumarium
condition.label: Postemergence, Rate 62 g/ha; scale of 0 to 10, 0 is no effect, 10 is complete control
Here the recorded Cocklebur plant response rating is given for each entry.
observed.property: Cocklebur plant response rating

> print(dat)
                                   molecule  test.system  value.reported
1  CC(C)=CCn1c(=O)on(C(=O)N(c2ccccc2)C(C)C)c1=O    cocklebur               0
2  CCOCn1c(=O)on(C(=O)N(c2ccc(F)cc2F)C(C)C)c1=O    cocklebur               2
3  CC(Cl)=CCn1c(=O)on(C(=O)N(c2ccc(Cl)cc2)C(C)C)c1=O    cocklebur               3
4  CC(C)N(C(=O)n1oc(=O)n(C(C)C(=O)c2ccccc2)c1=O)c1ccc(Cl)cc1 (stereo not shown)    cocklebur               0

====

Test system: velvetleaf
test.protocol: Test B pre/postemergence velvetleaf
Assay type: in vivo, Abutilon theophrasti
condition.label: Preemergence, Rate 125 g/ha; 0 is no effect, 10 is complete control
Here the recorded Velvetleaf plant response rating (0 to 10 scale) is given for each entry.
observed.property: Velvetleaf plant response rating (0 to 10 scale)

> print(dat)
                            molecule.smiles  test.system  value.reported
1  CCn1c(=O)on(C(=O)N(c2ccc(F)cc2)C(C)C)c1=O   velvetleaf              10
2  CC(C)N(C(=O)n1oc(=O)n(CCCl)c1=O)c1ccc(F)cc1   velvetleaf               6
3  CCc1noc(C)c1-n1c(=O)on(C(=O)N(c2ccc(F)cc2)C(C)C)c1=O   velvetleaf               0
4  CCOC(=O)Cn1c(=O)on(C(=O)N(c2ccc(F)cc2)C(C)C)c1=O   velvetleaf               0

====

Tested on: pigweed
test.protocol: Test B pre/postemergence pigweed
Assay type: in vivo, Amaranthus retroflexus
condition.label: Preemergence, Rate 500 g/ha; scale 0 to 10, 0 is no effect, 10 is complete control
Here the recorded Redroot pigweed plant response rating is given for each entry.
observed.property: Redroot pigweed plant response rating

> print(dat)
                                   compound                      observed.property  value.reported
1  CC(C)N(C(=O)n1oc(=O)n(C(C)C#N)c1=O)c1ccc(Cl)cc1 (stereo not drawn)  Redroot pigweed plant response rating               0
2  CSCCn1c(=O)on(C(=O)N(c2ccccc2)C(C)C)c1=O  Redroot pigweed plant response rating              10
3  CC(C)N(C(=O)n1oc(=O)n(C(C)CCl)c1=O)c1ccc(Cl)cc1 (stereo not drawn)  Redroot pigweed plant response rating               5
4  CC(C)N(C(=O)n1oc(=O)n(CC(=O)C2CC2)c1=O)c1ccc(F)cc1  Redroot pigweed plant response rating              10
5  CC(C)N(C(=O)n1oc(=O)n(Cc2cnc(Cl)s2)c1=O)c1ccc(F)cc1  Redroot pigweed plant response rating               0
6  CC(C)N(C(=O)n1oc(=O)n(CCC#N)c1=O)c1ccc(F)cc1F  Redroot pigweed plant response rating              10

====

Test system: wild oat
test.protocol: Test B pre/postemergence wild oat
Type: in vivo, Avena fatua
condition.label: Preemergence, Rate 62 g/ha; scale 0 to 10 (0 no effect, 10 complete control)
Here the recorded Plant response rating, Wild oats is given for each entry.
observed.property: Plant response rating, Wild oats

> print(dat)
                            molecule.smiles  test.system  value.reported
1  CCC(CC)n1c(=O)on(C(=O)N(c2ccc(F)cc2F)C(C)C)c1=O     wild oat               0
2  CC(C)N(C(=O)n1oc(=O)n(C2CCC2)c1=O)c1ccc(F)cc1     wild oat               0
3  CC(C)Cn1c(=O)on(C(=O)N(c2ccc(F)cc2F)C(C)C)c1=O     wild oat               4
4  CC(C)N(C(=O)n1oc(=O)[nH]c1=O)c1ccc(F)cc1F     wild oat               0

====

Here the recorded B. signalgrass plant response rating is given for each entry.
Test system: surinam grass
test.protocol: Test B pre/postemergence surinam grass
Format: in vivo, Brachiaria decumbens
condition.label: Rate 500 g/ha, Postemergence; scale 0 to 10, 0 no effect, 10 complete control
observed.property: B. signalgrass plant response rating

> print(dat)
                            molecule.smiles  value.reported
1  CC(C)N(C(=O)n1oc(=O)n(C2CCCC2)c1=O)c1ccc(Cl)cc1               2
2  CC(C)N(C(=O)n1oc(=O)n(CCC2CCCCC2)c1=O)c1ccc(F)cc1               0
3  CC(C)N(C(=O)n1oc(=O)n(C2CC2)c1=O)c1ccccc1               9
4  Cc1ccccc1-n1c(=O)on(C(=O)N(c2cccc(F)c2)C(C)C)c1=O               0
5  Cc1ccccc1-n1c(=O)on(C(=O)N(c2ccc(S(C)(=O)=O)cc2)C(C)C)c1=O               0

====

Test system: surinam grass
test.protocol: Test B pre/postemergence surinam grass
Type: in vivo, Brachiaria decumbens
condition.label: Rate 125 g/ha; Postemergence; scale 0 to 10, 0 no effect, 10 complete control
observed.property: B. signalgrass plant response rating

> print(dat)
                                   compound  value.reported
1  Cc1ccccc1-n1c(=O)on(C(=O)N(c2ccc(F)cc2F)C(C)C)c1=O [Compound 25]               0
2  CCn1c(=O)on(C(=O)N(c2ccc(F)cc2F)C(C)C)c1=O [Compound 116]               9
3  Cc1ccccc1-n1c(=O)on(C(=O)N(c2cc(F)ccc2F)C(C)C)c1=O [Compound 68]               0
4  CCN(CC)C(=O)n1oc(=O)n(-c2ccc(OC(F)(F)F)cc2)c1=O [Compound 12]               0

Source listed as patent US6737383B1.
